details: human gut metagenome, 24 h, 2 µM; note: call rule not given here
reported property: Bacterial Biotransformation

COC(=O)C1=C(C)NC(C)=C(C(=O)OC(C)C)C1c1cccc2nonc12 (stereo unspecified)
Compound metabolized
CC(C)N(CCC(C(N)=O)(c1ccccc1)c1ccccn1)C(C)C.O=P(O)(O)O (stereo unspecified) [DISOPYRAMIDE PHOSPHATE]
Compound NOT metabolized
Cc1ccc(/C(=C\CN2CCCC2)c2ccccn2)cc1
Compound NOT metabolized
CC(O)(CS(=O)(=O)c1ccc(F)cc1)C(=O)Nc1ccc(C#N)c(C(F)(F)F)c1 (stereo unspecified) [BICALUTAMIDE]
Compound NOT metabolized
Cc1ccc(-c2nc3ccc(C)cn3c2CC(=O)N(C)C)cc1
Compound NOT metabolized
COc1cc2nc(N3CCN(C(=O)c4ccco4)CC3)nc(N)c2cc1OC
Compound NOT metabolized
CCOc1ccc(NC(C)=O)cc1
Compound NOT metabolized
CC(C)NCC(O)c1ccc(NS(C)(=O)=O)cc1 (stereo unspecified)
Compound NOT metabolized

Which measured Bacterial Biotransformation value corresponds to COC1=CC(=O)C[C@@H](C)[C@]12Oc1c(Cl)c(OC)cc(OC)c1C2=O ?
Compound metabolized

Which measured Bacterial Biotransformation value corresponds to COc1ccccc1OCC(O)CN1CCN(CC(=O)Nc2c(C)cccc2C)CC1 (stereo unspecified) ?
Compound NOT metabolized

Which measured Bacterial Biotransformation value corresponds to C[C@@H]1CC[C@H]2[C@@H](C)C(=O)O[C@@H]3O[C@@]4(C)CC[C@@H]1[C@]32OO4 ?
Compound metabolized

Which measured Bacterial Biotransformation value corresponds to NC(CO)(CO)CO.O=C(c1ccccc1)c1ccc2n1CCC2C(=O)O (stereo unspecified) ?
Compound metabolized

Which measured Bacterial Biotransformation value corresponds to CCc1nn(CCCN2CCN(c3cccc(Cl)c3)CC2)c(=O)n1CCOc1ccccc1 ?
Compound NOT metabolized

Which measured Bacterial Biotransformation value corresponds to CNS(=O)(=O)Cc1ccc2[nH]cc(CCN(C)C)c2c1.O=C(O)CCC(=O)O [SUMATRIPTAN SUCCINATE] ?
Compound NOT metabolized

Which measured Bacterial Biotransformation value corresponds to O=C(Nc1ccccc1)OCC(CN1CCCCC1)OC(=O)Nc1ccccc1 (stereo unspecified) ?
Compound metabolized

Which measured Bacterial Biotransformation value corresponds to CC(C)(Oc1ccc(CCNC(=O)c2ccc(Cl)cc2)cc1)C(=O)O [BEZAFIBRATE] ?
Compound metabolized

Data origin: ChEMBL document CHEMBL5724914
